tested on: MCF7; experiment: Cytotoxicity against human MCF7 cells after 48 hrs by MTT assay; assay type: functional, cell-based; conditions: MCF7, 48 h
metric name: IC50
A complete answer gives the number and then names the unit.

Illustrative cases are given below, each with its answer.
                                test_smiles  target_or_system  metric_name  reported_result
0  CC(C)C1=CC2=CC=C3C(C)(C)[C@@H](O)C(=O)C[C@]3(C)C2=C(O)C1=O              MCF7         IC50        28.2 mg/L
1  CC(C)C1=CC2=CC=C3C(C)(C)CC(=O)O[C@@]3(C)CC2=C(O)C1=O              MCF7         IC50       0.006 mg/L
2  CC(C)C1=CC2=CC=C3C(C)(C)COC(=O)[C@@]3(C)CC2=C(O)C1=O              MCF7         IC50        0.39 mg/L

"CC(C)C1=CC2=CC=C3C(C)(C)CC(=O)C[C@@]3(C)C2=C(O)C1=O" yielded IC50 of 27.6 mg/L
